- System tested: T1, biot-AGE-BSA binding to His9-hMSR1 (Homo sapiens, UniProt P21757)
- T1 construct: human MSR1 extracellular domain expressed with a N-terminal nonahistidine tag; purchased R&D Systems 2708-MS
- T1 sequence (P21757 77-451 limits assumed): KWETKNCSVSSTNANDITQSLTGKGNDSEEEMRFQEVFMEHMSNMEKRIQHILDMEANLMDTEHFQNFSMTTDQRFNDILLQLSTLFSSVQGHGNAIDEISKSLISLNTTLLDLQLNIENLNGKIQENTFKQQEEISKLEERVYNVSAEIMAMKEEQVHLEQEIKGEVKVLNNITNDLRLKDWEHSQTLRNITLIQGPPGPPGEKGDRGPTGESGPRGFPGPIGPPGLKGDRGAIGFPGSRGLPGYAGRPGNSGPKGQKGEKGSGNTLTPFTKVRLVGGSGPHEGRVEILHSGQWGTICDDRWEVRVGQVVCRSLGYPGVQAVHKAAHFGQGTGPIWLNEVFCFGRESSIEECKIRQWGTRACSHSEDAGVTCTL
- Method notes: Competition sandwich ELISA, biot-AGE-BSA
- Cond: anti-MSR1 antibody 300 nM, 400 pM biot-AGE-BSA
Readout kind: % Blocking of biot-AGE-BSA binding to His9-hMSR1 (%)
Give your result in % as a bare value.

See these solved cases before continuing.
H1H21227N: "Three anti-MSR1 antibodies ... (21227N, 21231N, 21234N) were produced with the original human Fcγ portion" (antibody, V domains shown) VH: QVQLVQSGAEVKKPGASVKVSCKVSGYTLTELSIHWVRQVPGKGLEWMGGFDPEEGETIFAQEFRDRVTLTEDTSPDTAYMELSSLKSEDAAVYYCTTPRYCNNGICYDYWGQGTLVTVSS VL: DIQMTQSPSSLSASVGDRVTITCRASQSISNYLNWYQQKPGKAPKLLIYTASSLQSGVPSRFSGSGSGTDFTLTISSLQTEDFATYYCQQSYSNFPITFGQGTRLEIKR	99
H1H21227N-N297D: "The 21227N antibody was also produced as a third version with a N297D mutation" (antibody, V domains shown) VH: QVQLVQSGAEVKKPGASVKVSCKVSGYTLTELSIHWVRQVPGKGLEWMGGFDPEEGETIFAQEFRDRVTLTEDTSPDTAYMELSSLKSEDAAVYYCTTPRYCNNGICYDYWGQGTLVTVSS VL: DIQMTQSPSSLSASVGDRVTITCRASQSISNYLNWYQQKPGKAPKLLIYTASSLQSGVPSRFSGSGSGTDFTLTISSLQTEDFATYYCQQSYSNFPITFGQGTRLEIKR	97
H1H21231N: "Three anti-MSR1 antibodies ... (21227N, 21231N, 21234N) were produced with the original human Fcγ portion" (antibody, V domains shown) VH: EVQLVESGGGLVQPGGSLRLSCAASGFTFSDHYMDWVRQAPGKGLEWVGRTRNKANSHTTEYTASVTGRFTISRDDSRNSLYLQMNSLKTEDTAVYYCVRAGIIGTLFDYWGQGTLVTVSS VL: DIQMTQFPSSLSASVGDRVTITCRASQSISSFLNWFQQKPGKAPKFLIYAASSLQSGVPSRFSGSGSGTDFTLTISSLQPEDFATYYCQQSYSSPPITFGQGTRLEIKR	−44
H1H21231N-N297Q: modified version of "21231N (H1H21231N-N297Q) anti-MSR1 antibodies" with "a N297Q single point mutation" (antibody, V domains shown) VH: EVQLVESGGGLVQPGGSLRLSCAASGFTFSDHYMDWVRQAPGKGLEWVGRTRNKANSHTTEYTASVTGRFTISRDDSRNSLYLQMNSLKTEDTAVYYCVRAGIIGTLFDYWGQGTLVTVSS VL: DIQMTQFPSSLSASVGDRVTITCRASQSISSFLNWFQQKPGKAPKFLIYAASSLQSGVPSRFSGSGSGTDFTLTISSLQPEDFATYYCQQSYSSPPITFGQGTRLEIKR	−50

Here is the next item to consider.
Provide % Blocking of biot-AGE-BSA binding to His9-hMSR1 value for the following molecule: H1H21227N-N297Q: "modified versions of 21227N (H1H21227N-N297Q and H1H21227N-N297D)"; anti-MSR1 antibody "with a N297Q single point mutation" (antibody, V domains shown) VH: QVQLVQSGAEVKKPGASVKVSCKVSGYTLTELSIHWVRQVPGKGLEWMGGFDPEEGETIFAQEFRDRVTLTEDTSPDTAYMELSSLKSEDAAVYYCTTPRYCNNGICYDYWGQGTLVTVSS VL: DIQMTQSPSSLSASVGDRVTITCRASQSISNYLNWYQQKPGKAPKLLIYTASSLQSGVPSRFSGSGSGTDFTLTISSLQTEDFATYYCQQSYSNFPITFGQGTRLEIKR 96
